// provenance: PubChem BioAssay AID1159580

# assay.text: chemical genetic growth profiling, strain panel (AID 1159580);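 further: tested at 20 µM; growth read once vehicle control cultures reached saturation at 30 °C; 1 = growth at the plate median or of vehicle wells; lower values mean less growth of the strain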
# experimental.conditions: S. cerevisiae deletion strains, growth OD, locus YNL153C, strain GIM3, active compounds read low
Hit rate of the full screen: of about 5,500 compounds, about 2,000 (36%) were called active. Roughly 18% stayed inconclusive and do not appear here. The list shows a part of the results.
Measured normalized growth of individual entries
Enter the number alone.

The examples below pair each entry with its known result.
- O=C(COC(=O)c1ccccc1C(=O)c1ccccc1)c1ccccc1: 0.99
- COc1cccc(NC(=O)NC2Cc3ccccc3C2)c1: 0.994
- NC[C@H]1O[C@H](O[C@H]2[C@H](O)[C@@H](O[C@H]3O[C@H](CO)[C@@H](O)[C@H](N)[C@H]3O)[C@H](N)C[C@@H]2N)[C@H](N)C[C@@H]1O: 0.994

Endpoint output: normalized growth of COc1cccc(C(=O)N/N=C(/C)c2ccccc2O)c1 . Value? 0.973

Endpoint output: normalized growth of NC[C@H]1O[C@H](O[C@H]2C(O[C@@H]3O[C@H](CO)[C@@H](O)[C@H]3O)[C@@H](O)[C@H](N)C[C@@H]2N)[C@H](N)[C@@H](O)[C@@H]1O (stereo partly specified) . Value? 0.993

Endpoint output: normalized growth of COc1cccc(C(=O)NCCN2CCN(c3ccc(Cl)cc3)CC2)c1 . Value? 1.01

###

# assay.text: chemical genetic growth profiling, strain panel (AID 1159580);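 further: tested at 20 µM; growth read once vehicle control cultures reached saturation at 30 °C; 1 = growth at the plate median or of vehicle wells; lower values mean less growth of the strain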
# experimental.conditions: S. cerevisiae deletion strains, growth OD, locus YDL134C, strain PPH21, active compounds read low
Out of some 5,500 compounds screened, about 2,000 (36%) were called active. Not shown: some 18% with an inconclusive outcome. Some of the results follow. Where a SMILES comes first, the peptide text is derived from it. [ ]: non-standard residue; d: D form. Orn = NCCC[CH](N)C(=O)O
quantity.measured: normalized growth
Enter the number alone.

- Cc1onc(-c2ccccc2Cl)c1C(=O)N[C@@H]1C(=O)N2[C@@H]1SC(C)(C)[C@@H]2C(=O)O: 1.01
- COP(=O)(OC)OC(Br)C(Cl)(Cl)Br (stereo not given): 0.994
- OCCN1CCN(CCCN2c3ccccc3Sc3ccc(C(F)(F)F)cc32)CC1: 0.977
- CN1CCN(CCC=C2c3ccccc3Sc3ccc(S(=O)(=O)N(C)C)cc32)CC1: 1
- CC(=O)O[C@H]1CC[C@]2(C)C3CC[C@@]4(C)C(CC5O[C@@]6(CCC(C)CO6)[C@@H](C)C54)C3CC[C@H]2C1 (stereo not given in full): 0.988
- COc1cc(NS(=O)(=O)c2ccc(N)cc2)ncn1: 1.01
- COc1cccc(NC(=O)NC2Cc3ccccc3C2)c1: 0.989
- O=C(O)c1cc(=O)c2cccc(O)c2[nH]1: 1.01

Endpoint output: normalized growth of CC(=O)Oc1cccc2c1C(=O)c1c(OC(C)=O)cc(C(=O)O)cc1C2=O . Value? 1.02

Endpoint output: normalized growth of CCOc1ccc(NC(C)=O)cc1 . Value? 1

Endpoint output: normalized growth of CCC1(CC)C(=O)C=CNC1=O . Value? 1.03

Endpoint output: normalized growth of C=CCn1c(COc2c(Br)cc(C)c3c2CCC3)n[nH]c1=S . Value? 0.965

Endpoint output: normalized growth of O=C(O)c1cc(=O)c2c(Cl)cc(Cl)cc2[nH]1 . Value? 1.02

Endpoint output: normalized growth of CC(NCCC(c1ccccc1)c1ccccc1)c1ccccc1 (stereo not given) . Value? 0.968

Endpoint output: normalized growth of CC(=O)OCC1=C(C(=O)O)N2C(=O)[C@@H](NC(=O)CCCC(N)C(=O)O)C2SC1 (stereo not given in full) . Value? 1.01

Endpoint output: normalized growth of O=c1c(O)c(-c2ccc(O)c(O)c2)oc2cc(O)ccc12 . Value? 0.955

Endpoint output: normalized growth of OC(c1cc(C(F)(F)F)nc2c(C(F)(F)F)cccc12)C1CCCCN1 (stereo not given) . Value? 0.966

Endpoint output: normalized growth of CC(C)CC1NC(=O)C(CCCN)NC(=O)C(C(C)C)NC(=O)C2CCCN2C(=O)C(Cc2ccccc2)NC(=O)C(CC(C)C)NC(=O)C(CCCN)NC(=O)C(C(C)C)NC(=O)C2CCCN2C(=O)C(Cc2ccccc2)NC1=O (stereo not given) (cyclo(FPV[Orn]LFPV[Orn]L); configuration not given here) . Value? 1.01

Endpoint output: normalized growth of NC(N)=NC(N)=Nc1ccccc1 . Value? 1.01

Endpoint output: normalized growth of CN1CCN(CCCN2c3ccccc3Sc3ccc(C(F)(F)F)cc32)CC1 . Value? 0.0567

###

# assay.text: chemical genetic growth profiling, strain panel (AID 1159580);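 further: tested at 20 µM; growth read once vehicle control cultures reached saturation at 30 °C; 1 = growth at the plate median or of vehicle wells; lower values mean less growth of the strain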
# experimental.conditions: S. cerevisiae deletion strains, growth OD, locus YGL248W, strain PDE1, active compounds read low
Out of some 5,500 compounds screened, about 2,000 (36%) were called active. Another 18% or so got no clear call; they are omitted. The list shows a part of the results. *1 amine or outer side, *2 acyl side, *3 side chain or, on linkers, in order; H or OH if unused. Where a SMILES comes first, the peptide text is derived from it. Bridges are numbered along the chain shown (N, C = ends). [ ]: non-standard residue; d: D form. The star is where a group is joined. ξ: configuration not given here. ΔAla(E,3-NHCONH2) = NC(=O)N/C=C(/N)C(=O)O; X2 = NC1=NCCC(C(N[*:1])C(=O)[*:2])N1; ξβ3hOrn = NCCCC(N)CC(=O)*; Dap = NC[CH](N)C(=O)O
Measured normalized growth of individual entries
Enter the number alone.

The examples below pair each entry with its known result.
• NC1CC1c1ccccc1 (centres undefined) = 1.03
• OCCN1CCN(CCCN2c3ccccc3Sc3ccc(C(F)(F)F)cc32)CC1 = 0.989
• NC1C[C@H]1c1ccccc1 (some centres undefined) = 1
• NCCCC(N)CC(=O)NCC1NC(=O)C(CO)NC(=O)C(N)CNC(=O)C(C2CCN=C(N)N2)NC(=O)/C(=C\NC(N)=O)NC1=O (stereo not drawn) (H-[Dap]S[Dap](ξβ3hOrn)[ΔAla(E,3-NHCONH2)][X2]; lactam 1-C; configuration not given here) = 1.01
• CC1=CC2C(C(C)C)CCC(C)(O)C2CC1 (centres undefined) = 1.02

Endpoint output: normalized growth of O=C1c2ccccc2C(=O)C1c1ccccc1 . Value? 1

Endpoint output: normalized growth of CC1=NN(c2ccccc2)C(=O)C1 . Value? 0.963

Endpoint output: normalized growth of C=C(C)[C@@H]1CC[C@]2(CO)CC[C@]3(C)[C@H](CCC4[C@@]5(C)CC[C@H](O)C(C)(C)C5CC[C@]43C)C12 (some centres undefined) . Value? 1

Endpoint output: normalized growth of CN1CCN(CCCN2c3ccccc3Sc3ccc(C(F)(F)F)cc32)CC1 . Value? 0.0581

###

# assay.text: chemical genetic growth profiling, strain panel (AID 1159580);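 further: tested at 20 µM; growth read once vehicle control cultures reached saturation at 30 °C; 1 = growth at the plate median or of vehicle wells; lower values mean less growth of the strain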
# experimental.conditions: S. cerevisiae deletion strains, growth OD, locus YER110C
The whole screen tested about 5,500 compounds, of which about 2,000 (36%) were called active. About 18% were inconclusive and are not listed. Cut-off read from the data, not from the text of the source: active = normalized growth mostly below about 0.91 (no sharp cut-off); inconclusive = no clear call, values can overlap the other calls; inactive = mostly above about 0.92. The list shows a part of the results. Where a SMILES comes first, the peptide text is derived from it. Bridges are numbered along the chain shown (N, C = ends). [ ]: non-standard residue; d: D form. The star is where a group is joined. Octanoyl(6-Me) = CCC(C)CCCCC(=O)*; Dab = NCC[CH](N)C(=O)O
Use one of these outcomes when replying: T for active, F for inactive

Please review the entries below; each comes with its answer.
- CC(N)C(O)c1ccc(O)c(O)c1 (configuration not stated): F
- C[C@]12CCC(=O)C=C1CCC1C2C(=O)C[C@@]2(C)C1CC[C@]2(O)C(=O)CO (some centres not stated): F
- CC1(C)C(=O)[C@@H]2O[C@@H]2[C@@]2(C)C1CC(=O)[C@]1(C)C2CC[C@@]2(C)[C@H](c3ccoc3)OC(=O)[C@H]3O[C@]321 (some centres not stated): F
- O=C1c2ccccc2C(=O)C1c1ccccc1: F
- CCC(C)CCCCC(=O)NC(CCN)C(=O)NC(C(=O)NC(CCN)C(=O)NC1CCNC(=O)C(C(C)O)NC(=O)C(CCN)NC(=O)C(CCN)NC(=O)C(CC(C)C)NC(=O)C(Cc2ccccc2)NC(=O)C(CCN)NC1=O)C(C)O (configuration not stated) ({Octanoyl(6-Me)}-[Dab]T[Dab][Dab][Dab]FL[Dab][Dab]T; lactam 4-C; configuration not given here): F

Could you check what this test reported for COc1cccc(O)c1O ? F

Could you check what this test reported for Cc1onc(-c2c(Cl)cccc2Cl)c1C(=O)N[C@@H]1C(=O)N2[C@@H]1SC(C)(C)[C@@H]2C(=O)O ? F

Could you check what this test reported for C[C@]12CCC(=O)C=C1CCC1C2[C@@H](O)C[C@@]2(C)C1CC[C@]2(O)C(=O)COC(=O)CCC(=O)O (some centres not stated) ? F

Could you check what this test reported for COC(=O)[C@]1(C)CC[C@]2(C)CC[C@]3(C)C4=CC=C5C(=CC(=O)C(O)=C5C)[C@]4(C)CC[C@@]3(C)[C@@H]2C1 ? F

Could you check what this test reported for NC1CC1c1ccccc1 (configuration not stated) ? F

Could you check what this test reported for COc1cc2c(cc1OC)[C@@H]1C(=O)c3ccc4c(c3O[C@@H]1CO2)CC(C(C)C)O4 (some centres not stated) ? F

Could you check what this test reported for COc1cc(-c2oc3cc(O)ccc3c(=O)c2O)cc(OC)c1OC ? F

Could you check what this test reported for COc1cnc(NS(=O)(=O)c2ccc(N)cc2)nc1 ? F
